assay-target: EWSR1 (UniProt Q01844 1-656)
Sequence (Q01844 whole entry): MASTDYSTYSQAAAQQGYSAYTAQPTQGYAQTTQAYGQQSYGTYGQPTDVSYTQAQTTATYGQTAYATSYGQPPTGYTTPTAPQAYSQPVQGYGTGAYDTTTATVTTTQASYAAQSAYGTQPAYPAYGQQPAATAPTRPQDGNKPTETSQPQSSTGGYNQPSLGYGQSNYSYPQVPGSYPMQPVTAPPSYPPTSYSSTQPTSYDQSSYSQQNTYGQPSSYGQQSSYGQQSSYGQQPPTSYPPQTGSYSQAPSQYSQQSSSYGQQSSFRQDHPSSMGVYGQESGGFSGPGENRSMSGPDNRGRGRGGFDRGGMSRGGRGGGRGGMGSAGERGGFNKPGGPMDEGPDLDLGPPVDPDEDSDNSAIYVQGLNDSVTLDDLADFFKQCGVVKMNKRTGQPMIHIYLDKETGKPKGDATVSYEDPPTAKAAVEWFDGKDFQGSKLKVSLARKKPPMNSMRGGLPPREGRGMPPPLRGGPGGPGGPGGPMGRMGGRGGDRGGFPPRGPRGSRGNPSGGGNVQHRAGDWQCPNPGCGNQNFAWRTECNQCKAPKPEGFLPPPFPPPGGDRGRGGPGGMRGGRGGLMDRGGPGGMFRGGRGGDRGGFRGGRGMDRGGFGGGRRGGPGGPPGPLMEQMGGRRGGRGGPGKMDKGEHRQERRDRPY
assay-summary: BLI; 2:1 binding model
condition-info: protein: recombinant; tags: N-terminal 6xHis (pET28a)
Entries annotated with measured pKd
Give only the number. pKd is defined as minus log10 of concentration in molar units.

binder	pKd
UCCGAACCCACAGGGACGUAGGAGAUGUUAUUUUGUUUUUAAUAUUUC (ssRNA) [3NCR48]	7.04

Next up:
Value of measured pKd for the entry UCUCUUGCUUUGCAGAGUAGAGCAGUAAGAAACUGGUAGGCUACGUGUGU (ssRNA) [5NCR-RC50] : 7.10
